# TARGET OF ASSAY: T7 RNA Polymerase (Escherichia phage T7, UniProt P00573)
# Sequence (P00573 whole entry): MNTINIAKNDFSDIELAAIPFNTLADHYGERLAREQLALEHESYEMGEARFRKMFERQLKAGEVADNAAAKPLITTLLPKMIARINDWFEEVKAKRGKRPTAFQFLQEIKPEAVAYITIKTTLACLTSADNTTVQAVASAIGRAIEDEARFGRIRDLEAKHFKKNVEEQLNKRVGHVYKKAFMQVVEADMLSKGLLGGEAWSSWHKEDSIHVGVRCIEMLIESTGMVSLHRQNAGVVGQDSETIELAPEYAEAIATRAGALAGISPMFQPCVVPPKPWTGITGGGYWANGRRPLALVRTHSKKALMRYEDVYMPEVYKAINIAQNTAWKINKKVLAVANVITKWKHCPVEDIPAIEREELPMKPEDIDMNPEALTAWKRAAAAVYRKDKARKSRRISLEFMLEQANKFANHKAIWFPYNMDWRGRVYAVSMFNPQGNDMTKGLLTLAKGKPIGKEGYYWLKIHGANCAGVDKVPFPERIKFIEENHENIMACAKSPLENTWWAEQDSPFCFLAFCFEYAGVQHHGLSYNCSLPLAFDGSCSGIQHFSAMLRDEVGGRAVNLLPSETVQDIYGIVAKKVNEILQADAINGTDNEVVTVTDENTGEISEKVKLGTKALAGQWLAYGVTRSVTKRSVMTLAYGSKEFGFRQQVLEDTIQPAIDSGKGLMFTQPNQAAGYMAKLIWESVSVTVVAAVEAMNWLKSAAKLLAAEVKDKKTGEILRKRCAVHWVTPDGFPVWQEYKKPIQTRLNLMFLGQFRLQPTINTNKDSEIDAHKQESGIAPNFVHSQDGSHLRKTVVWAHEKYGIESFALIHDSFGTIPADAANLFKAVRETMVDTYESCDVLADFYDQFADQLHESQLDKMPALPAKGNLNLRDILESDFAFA
# ASSAY NAME: Detection of the efficiency of mRNA capping synthesis (in vitro transcription, product yield)
# Assay type: biochemical
# REPORTED CONDITIONS: 20 µL mRNA synthesis reaction system, test compound 4 mM, 37°C 2 to 3 h (Table 2)
READOUT LABEL: Final product mass
Respond with a number, then the unit of measure.

Query block: Provide one value: measured Final product mass of CO[C@@H]1[C@H](OP(=O)([O-])OC[C@H]2O[C@@H](n3cnc4c(=O)[nH]c(N)nc43)[C@H](O)[C@@H]2O)[C@@H](COP(=O)(O)OP(=O)(O)OP(=O)(O)OC[C@H]2O[C@@H](n3c[n+](C)c4c(=O)[nH]c(N)nc43)[C@H](O)[C@@H]2NC(=O)CCCC[C@@H]2SC[C@@H]3NC(=O)N[C@@H]32)O[C@H]1n1cnc2c(N)ncnc21 [Compound S169]
Result block: 131 µg

Query block: Provide one value: measured Final product mass of COCCOCCOCCOCCOCC(=O)NC[C@H]1[C@@H](O)[C@H](n2c[n+](C)c3c(=O)[nH]c(N)nc32)O[C@@H]1COP(=O)([O-])OP(=O)(O)OP(=O)(O)OC[C@H]1O[C@@H](n2cnc3c(N)ncnc32)[C@H](OC)[C@@H]1OP(=O)(O)OC[C@H]1O[C@@H](n2cnc3c(=O)[nH]c(N)nc32)[C@H](O)[C@@H]1O [Compound 6]
Result block: 117 µg

====

For each of the molecules below, state its Final product mass.
# TARGET OF ASSAY: T7 RNA Polymerase (Escherichia phage T7, UniProt P00573)
# ASSAY NAME: Detection of the efficiency of mRNA capping synthesis (in vitro transcription, product yield)
# Format: biochemical
# REPORTED CONDITIONS: 20 µL mRNA synthesis reaction system, method of Example 20 (Table 4)

Query block: Provide one value: measured Final product mass of CO[C@@H]1[C@H](OP(=O)([O-])OC[C@H]2O[C@@H](n3cnc4c(=O)[nH]c(N)nc43)[C@H](O)[C@@H]2O)[C@@H](COP(=O)(O)OP(=O)(O)OP(=O)(O)OC[C@H]2O[C@@H](n3c[n+](C)c4c(=O)[nH]c(N)nc43)[C@H](O)[C@]2(F)CNC(C)=O)O[C@H]1n1cnc2c(N)ncnc21
Result block: 133 µg

Query block: Provide one value: measured Final product mass of CNc1ncnc2c1ncn2C1OC(COP(=O)(O)OP(=O)(O)OP(=O)(O)OCC2OC(n3c[n+](C)c4c(=O)[nH]c(N)nc43)C(O)C2(F)COC)C(OP(=O)([O-])OCC2OC(n3cnc4c(=O)[nH]c(N)nc43)C(O)C2O)C1OC (stereo not shown)
Result block: 94 µg

Query block: Provide one value: measured Final product mass of COCC1(F)C(COP(=O)(O)OP(=O)(O)OP(=O)(O)OCC2OC(n3cnc4c(N)ncnc43)C(OC)C2OP(=O)([O-])OCC2OC(n3cnc4c(=O)[nH]c(N)nc43)C(O)C2O)OC(n2c[n+](Cc3ccc(F)cc3)c3c(=O)[nH]c(N)nc32)C1O (stereo not shown)
Result block: 113 µg

Query block: Provide one value: measured Final product mass of CC[n+]1cn(C2OC(COP(=O)(O)OP(=O)(O)OP(=O)(O)OCC3OC(n4cnc5c(N)ncnc54)C(OC)C3OP(=O)([O-])OCC3OC(n4cnc5c(=O)[nH]c(N)nc54)C(O)C3O)C(F)(COC)C2O)c2nc(N)[nH]c(=O)c21 (stereo not shown)
Result block: 110 µg

====

# System: HEK293T cells
# ASSAY NAME: Expression efficiency of capped luciferase mRNAs in HEK293T cells
# Type: cell-based
# REPORTED CONDITIONS: 6 h after transfection of capped luciferase mRNA; reading of N-7413 = 1 (Table 5)
# Protocol: • 1) HNE293T cells were cultured in DMEM medium containing 10% FBS and penicillin/streptomycin at 37°C and 5% CO2. • 2) The cultured HEK293T cells were spread in a 96-well plate with 1.25 × 10^4 cells per well. • 3) After the cells completely adhered to the wall, 0.5 µg of a mixture of mRNA sample and Polyplus jet[…] was added to each well of cells, and cultured at 37°C and 5% CO2 for 6 h. • 4) The growth medium was removed from the cells to be tested and the cells were rinsed with PBS. […]
READOUT LABEL: Relative fluorescence reading

Query block: Provide one value: measured Relative fluorescence reading of COCC1(F)C(COP(=O)(O)OP(=O)(O)OP(=O)(O)OCC2OC(n3cnc4c(N)ncnc43)C(OC)C2OP(=O)([O-])OCC2OC(n3cnc4c(=O)[nH]c(N)nc43)C(O)C2O)OC(n2c[n+](Cc3ccc(C)cc3)c3c(=O)[nH]c(N)nc32)C1O (stereo not shown) [Compound D93]
Result block: 1.95

Query block: Provide one value: measured Relative fluorescence reading of COCC1(F)C(COP(=O)(O)OP(=O)(O)OP(=O)(O)OCC2OC(n3cnc4c(N)ncnc43)C(OC)C2OP(=O)([O-])OCC2OC(n3cnc4c(=O)[nH]c(N)nc43)C(O)C2O)OC(n2c[n+](Cc3ccccc3)c3c(=O)[nH]c(N)nc32)C1O (stereo not shown) [Compound D88]
Result block: 2.04

Query block: Provide one value: measured Relative fluorescence reading of CNc1ncnc2c1ncn2C1OC(COP(=O)(O)OP(=O)(O)OP(=O)(O)OCC2OC(n3c[n+](C)c4c(=O)[nH]c(N)nc43)C(O)C2(F)COC)C(OP(=O)([O-])OCC2OC(n3cnc4c(=O)[nH]c(N)nc43)C(O)C2O)C1OC (stereo not shown) [Compound D96]
Result block: 2.96

Query block: Provide one value: measured Relative fluorescence reading of CNc1nc2c(c(=O)[nH]1)[n+](C)cn2[C@@H]1O[C@H](COP(=O)(O)OP(=O)(O)OP(=O)(O)OC[C@H]2O[C@@H](n3cnc4c(N)ncnc43)[C@H](OC)[C@@H]2OP(=O)([O-])OC[C@H]2O[C@@H](n3cnc4c(=O)[nH]c(N)nc43)[C@H](O)[C@@H]2O)[C@@](F)(COC)[C@H]1O [Compound D87]
Result block: 1.55

====

# TARGET OF ASSAY: T7 RNA Polymerase (Escherichia phage T7)
# ASSAY NAME: Detection of the efficiency of mRNA capping synthesis (in vitro transcription, product yield)
# Assay type: biochemical
# REPORTED CONDITIONS: 20 µL mRNA synthesis reaction system, method of Example 20 (Table 4)
Kindly return met if reported Final product mass is no lower than 100 µg; return not met if it is lower.

Query block: Exam item: decide whether the reported Final product mass for COC1C(OP(=O)([O-])OCC2OC(n3cnc4c(=O)[nH]c(N)nc43)C(O)C2O)C(COP(=O)(O)OP(=O)(O)OP(=O)(O)OCC2OC(n3c[n+](C)c4c(=O)[nH]c(N)nc43)C(O)C2(C)F)OC1n1cnc2c(N)ncnc21 (centres unmarked) is at least 100 µg.
Result block: met

Query block: Exam item: decide whether the reported Final product mass for COCC1(F)C(COP(=O)(O)OP(=O)(O)OP(=O)(O)OP(=O)(O)OCC2OC(n3cnc4c(N)ncnc43)C(OC)C2OP(=O)([O-])OCC2OC(n3cnc4c(=O)[nH]c(N)nc43)C(O)C2O)OC(n2c[n+](C)c3c(=O)[nH]c(N)nc32)C1O (centres unmarked) is at least 100 µg.
Result block: not met

Query block: Exam item: decide whether the reported Final product mass for COCC1(F)C(COP(=O)(O)OP(=O)(O)OP(=O)(O)OCC2OC(n3cnc4c(N)ncnc43)C(OC)C2OP(=O)([O-])OCC2OC(n3cnc4c(=O)[nH]c(N)nc43)C(O)C2O)OC(n2c[n+](Cc3ccc(Cl)cc3)c3c(=O)[nH]c(N)nc32)C1O (centres unmarked) is at least 100 µg.
Result block: met

Query block: Exam item: decide whether the reported Final product mass for COCC1(F)C(COP(=O)(O)OP(=O)(O)OP(=O)(O)OCC2OC(n3cnc4c(N)ncnc43)C(OC)C2OP(=O)([O-])OCC2OC(n3cnc4c(=O)[nH]c(N)nc43)C(O)C2O)OC(n2c[n+](Cc3ccc(C)cc3)c3c(=O)[nH]c(N)nc32)C1O (centres unmarked) is at least 100 µg.
Result block: met

Query block: Exam item: decide whether the reported Final product mass for COCC1(F)C(COP(=O)(O)OP(=O)(O)CP(=O)(O)OCC2OC(n3cnc4c(N)ncnc43)C(OC)C2OP(=O)([O-])OCC2OC(n3cnc4c(=O)[nH]c(N)nc43)C(O)C2O)OC(n2c[n+](C)c3c(=O)[nH]c(N)nc32)C1O (centres unmarked) is at least 100 µg.
Result block: not met

Query block: Exam item: decide whether the reported Final product mass for COCC1(N=[N+]=[N-])C(COP(=O)(O)OP(=O)(O)OP(=O)(O)OCC2OC(n3cnc4c(N)ncnc43)C(OC)C2OP(=O)([O-])OCC2OC(n3cnc4c(=O)[nH]c(N)nc43)C(O)C2O)OC(n2c[n+](C)c3c(=O)[nH]c(N)nc32)C1O (centres unmarked) is at least 100 µg.
Result block: met
